For each of the molecules below, state its viability.
Assay: drug combination growth inhibition, ovarian cancer – cell-based, oncology-focused library, rucaparib conditional, profiling panel (AID 1508598)
Conditions: patient-derived ovarian cancer cells, CellTiter-Glo viability, 144 h; at 1.25 µM; OCI-P5x cells; with rucaparib 20 µM; hits give low values; 100% = cells with rucaparib alone
Write down the numeric answer in % and omit the unit.

What value of viability has been reported for the following molecule? S=C(NCc1ccc2c(c1)OCO2)N1CCN(c2ncnc3c2oc2ccccc23)CC1
103

What value of viability has been reported for the following molecule? CC(/C=C/C(=O)NO)=C\[C@@H](C)C(=O)c1ccc(N(C)C)cc1
2.76

What value of viability has been reported for the following molecule? CCOc1ccn(-c2ccc(F)cc2)c(=O)c1C(=O)Nc1ccc(Oc2ccnc(N)c2Cl)c(F)c1
88.6

What value of viability has been reported for the following molecule? CN1CCN(c2cccc(Nc3nc4c(-c5ccc(S(C)(=O)=O)cc5)cccn4n3)c2)CC1
112

What value of viability has been reported for the following molecule? CN1CCN(c2ccc(OC(F)(F)F)c(Nc3ncc4c(n3)-c3c(c(C(N)=O)nn3CCO)CC4)c2)CC1
73.8

What value of viability has been reported for the following molecule? O=C(Cc1ccc(-c2ccc(OCCN3CCOCC3)cc2)cn1)NCc1ccccc1
58.9

What value of viability has been reported for the following molecule? COc1cc(OC)c(/C=C/S(=O)(=O)Cc2ccc(OC)c(NCC(=O)O)c2)c(OC)c1
54.9

What value of viability has been reported for the following molecule? NC1(c2ccc(-c3nc4ccn5c(=O)[nH]nc5c4cc3-c3ccccc3)cc2)CCC1
88.6

What value of viability has been reported for the following molecule? Cc1nc(Nc2n[nH]c3c2CN(C(=O)N[C@H](CN(C)C)c2ccccc2)C3(C)C)c2sccc2n1
24.7

What value of viability has been reported for the following molecule? Cn1cnc(=N)c2[nH]cnc21
109

Data origin, for the record: PubChem BioAssay
